The origin of these recorded values is ChEMBL document CHEMBL1124475.

# targetOrSystem: D(2) dopamine receptor (Rattus norvegicus, UniProt P61169)
# Sequence (P61169 whole entry): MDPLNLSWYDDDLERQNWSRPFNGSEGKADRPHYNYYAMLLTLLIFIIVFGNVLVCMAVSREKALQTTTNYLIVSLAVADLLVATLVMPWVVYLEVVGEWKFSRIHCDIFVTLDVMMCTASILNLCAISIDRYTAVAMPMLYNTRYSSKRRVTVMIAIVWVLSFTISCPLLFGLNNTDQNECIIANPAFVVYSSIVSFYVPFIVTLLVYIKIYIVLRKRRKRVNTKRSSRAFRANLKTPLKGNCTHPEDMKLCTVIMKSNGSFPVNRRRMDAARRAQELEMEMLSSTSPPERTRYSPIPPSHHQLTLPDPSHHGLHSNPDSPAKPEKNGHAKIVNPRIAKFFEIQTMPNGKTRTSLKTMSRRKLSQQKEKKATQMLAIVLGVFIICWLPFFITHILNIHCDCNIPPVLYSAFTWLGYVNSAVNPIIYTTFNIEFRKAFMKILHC
# methodDescription: Ability to bind at dopamine receptor D2 of rat corpus striatum by displacing [3H]spiperone
endpointLabel: IC50 (nM)
# value in nM; strip the unit string

smilesNotation	IC50, nM
Cc1cc2c(N3CCN(CCCCN4C(=O)SC5(CCCC5)C4=O)CC3)nccc2o1.Cl	751
Cl.Cn1ccc2c(N3CCN(CCCCN4C(=O)SC5(CCCC5)C4=O)CC3)nccc21	517

Would you kindly look at the next entry?
Lab note: `Cl.O=C1SC2(CCCC2)C(=O)N1CCCCN1CCN(c2nccc3ccsc23)CC1` gave IC50 of 418
